Entry source: ChEMBL document CHEMBL4270494

- Test system: HT-29
- assayProtocol: Cytotoxicity against human HT-29 cells assessed as reduction in cell viability incubated for 48 hrs by MTT assay
- Assay type: functional, cell-based
- runParameters: HT-29, 48 h
measuredParameter: pIC50
Answers are plain numbers, as −log10 of the molar value.

**Query** Supply measured pIC50 of COc1cc(C(=O)/C=C/c2cc3c([nH]c4ccccc43)c(-c3cc(OC)c(OC)c(OC)c3)n2)cc(OC)c1OC in your reply.
**Result** 4.64
